Molecular target: Human B7H3 (plate-coated protein, ELISA) (human) (UniProt Q5ZPR3)
Assay: ELISA, antigen coated on plate, anti-human IgG-HRP
Exercise: for every item that follows, state its recorded EC50.
Answers are plain numbers, in pM.

Solved entries:
[[record]]
binder = "#23-5423 (VH5-4-VL2-3) (antibody, IgG1, V domains shown, Humanized antibody from murine #23) VH: QVQLVQSGAEVKKPGESLKISCKASGYNFNNYWMHWVRQRPGKGLEWIGMIHPNSGTFNYNERFKRKATLTVDKSISTAYLQWSSLKAEDTAMYYCAKSTALATDYWGQGTLVTVSS VL: QIVLTQSPSTLSASVGDRVTITCSASSSVSYMYWYQQKPGKAPKLLIYDTSNLASGVPIRFSGSGSGTSYTLTISSLQPDDFATYYCQQWSSYPLTFGQGTKLEIK"
observation_type = "EC50"
reported_value = 68.5

[[record]]
binder = "#23-5424 (VH5-4-VL2-4) (antibody, IgG1, V domains shown, Humanized antibody from murine #23; also called #23-VH5-4/VL2-4) VH: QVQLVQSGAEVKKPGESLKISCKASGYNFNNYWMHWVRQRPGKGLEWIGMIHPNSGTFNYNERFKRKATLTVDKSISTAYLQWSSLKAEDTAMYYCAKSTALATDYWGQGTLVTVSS VL: QIVLTQSPSTLSASVGDRVTMTCSASSSVSYMYWYQQKPGKAPKLLIYDTSNLASGVPIRFSGSGSGTSYTLTISSMQPDDFVTYYCQQWSSYPLTFGQGTKLEIK"
observation_type = "EC50"
reported_value = 125

[[record]]
binder = "#27-2121 (VH2-1-VL2-1) (antibody, IgG1, V domains shown, Humanized antibody from murine #27; also called #27-VH2-1/VL2-1) VH: QVQLVQSGAEVVKPGASVKVSCKASGYTFTNYWMHWVRQAPGQGLEWMGMIHPNSGAFNYNERFKTRVTITVDKSTSTAYMELSSLRSEDTAVYYCARSTALATGYWGQGTLVTVSS VL: DIQLTQSPSFLSASVGDRVTITCSASSSVSYMYWYQQKPGKSPKLLIYDTSNLASGVPSRFSGSGSGTEYTLTISSLQPEDFATYYCQQWSSYPLTFGQGTKLEIK"
observation_type = "EC50"
reported_value = 583


Task: // Input: #27-21 (VH2-2-VL2-1) (antibody, V domains shown, Humanized antibody from murine #27; Detected with anti-human IgG and captured through Fc; also called #27-VH2-2/VL2-1) VH: QVQLVQSGAEVVKPGASVKVSCKASGYTFTNYWMHWVKQAPGQGLEWIGMIHPNSGAFNYNERFKTRVTITVDKSTSTAYMELSSLRSEDTAVYYCARSTALATGYWGQGTLLTVSS VL: DIQLTQSPSFLSASVGDRVTITCSASSSVSYMYWYQQKPGKSPKLLIYDTSNLASGVPSRFSGSGSGTEYTLTISSLQPEDFATYYCQQWSSYPLTFGQGTKLEIK . Output its EC50 only.
Result: 618
